# key: entry, value: pKi
Test: Displacement of [3H]2-BFI from I2IR in human brain frontal cortex incubated for 45 mins by liquid scintillation spectrometry
Format: tissue-based

## Task Identify measured pKi associated with CCOP(=O)(OCC)C1(c2ccccc2)N=CC2C(=O)N(c3cccc(C(F)(F)F)c3)C(=O)C21 (racemic)
## Result < 3

## Task Identify measured pKi associated with CCOP(=O)(OCC)C1(c2ccccc2)N=CC2C(=O)N(c3ccc(F)cc3)C(=O)C21 (racemic)
## Result < 3

## Task Identify measured pKi associated with CCOP(=O)(OCC)C1N=CC2C(=O)N(c3ccc(F)c(Cl)c3)C(=O)C21 (racemic)
## Result < 3

## Task Identify measured pKi associated with CCOP(=O)(OCC)C1(c2ccccc2)N=CC2C(=O)N(c3ccc(Br)cc3)C(=O)C21 (racemic)
## Result < 3

## Task Identify measured pKi associated with CCOP(=O)(OCC)C1(c2ccccc2)N=CC2C(=O)N(c3ccc(Cl)c(Cl)c3)C(=O)C21 (racemic)
## Result < 3

## Task Identify measured pKi associated with CCOP(=O)(OCC)C1(c2ccccc2)N=CC2C(=O)N(c3ccc(C(F)(F)F)cc3)C(=O)C21 (racemic)
## Result < 3

====

Test: Displacement of [3H]2-BFI from I2IR in human brain frontal cortex incubated for 45 mins by liquid scintillation spectrometry
Format: tissue-based
OUTCOME MEASURE: pKi
Write no unit; give the number alone.

CCOP(=O)(OCC)C1N=CC2C(=O)N(c3ccc(OC)cc3)C(=O)C21 (racemic) :: 5.11

## Task Identify measured pKi associated with CCOP(=O)(OCC)C1N=CC2C(=O)N(C)C(=O)C21 (racemic)
## Result 6.79

## Task Identify measured pKi associated with CCOP(=O)(OCC)C1(c2ccccc2)N=CC2C(=O)N(c3ccc(-c4ccccc4)cc3)C(=O)C21 (racemic)
## Result 7.9

## Task Identify measured pKi associated with CCCN1C(=O)C2C=NC(c3ccccc3)(P(=O)(OCC)OCC)C2C1=O (racemic)
## Result 4.02
